- Test system: SNB-19 CNS
- assay.procedure: NCI-60 one-dose screen, 48 h (100 = growth as untreated, 0 = no growth, -100 = all killed)
- recorded.conditions: 10 µM unless noted
The panel holds about 83,000 compounds, 20% with a hit somewhere; the sample as a whole holds those more often.
Each record here notes measured growth.
Kindly provide the numeric value in % only, without the unit symbol.

COC(=O)c1sccc1-c1cc(O)c(C(=O)Nc2ccccc2)s1 | 107
Cc1cc(=O)oc2cc(Oc3nc(Br)cn4c(Br)cnc34)ccc12 | 74.6
Nc1[nH]nc2nc(-c3ccccc3)n3c4ccccc4nc3c12 | 106
CCN(CC)CCCNc1cc(OC)c(OC)c2cccnc12 | 63.5

Given the compound COc1ccc(C/C(C)=C(\c2ccc(O)cc2)c2ccc(OCCN3CCCCC3)cc2)cc1 and test system SNB-19 CNS, the measured growth is 97.1

----------
- Test system: SNB-75 CNS
- assay.procedure: NCI-60 one-dose screen, 48 h (100 = growth as untreated, 0 = no growth, -100 = all killed)
- recorded.conditions: 10 µM unless noted
This is part of a sample that, as a whole, favours compounds with a hit. Of some 83,000 tested, about 20% had one in any assay.
Each record here notes measured growth.
Kindly provide the numeric value in % only, without the unit symbol.

Noted for COC(=O)[C@]1(C)CCC[C@]2(C)[C@H]3C[C@@H]4[C@H]5[C@@H]6CC/C(=N\OCC/C(N)=N/O)[C@H]5[C@@]3(CC[C@H]21)CC4(C(C)C)O6 : its growth reads 66.9

Noted for COc1cc(OC)c2c(=O)c3c(CC=C(C)C)cc(OC)c(O)c3oc2c1 : its growth reads 60

Noted for O=C1Nc2ccccc2/C1=N/N1C(=O)CN(CCCl)C1=O : its growth reads 86.8

----------
- System: U251 CNS
- assay.procedure: NCI-60 one-dose screen, 48 h
- recorded.conditions: 10 µM unless noted
About 83,000 compounds went through this panel and 20% of them were active in at least one assay; those are over-represented in the sample as a whole. Calls of active or inactive are those of the source. The calls were made as follows: active = growth percent below 10; inactive = the rest.
// classify into active, inactive

Problem: Any idea what this test logged for CCOC(=O)C1=C(CC(O)c2ccc(OC)cc2OC)NC(=O)NC1c1ccccc1 (stereo not drawn) ?
Solution: inactive

Problem: Any idea what this test logged for COC1/C=C/OC2(C)Oc3c(C)c(O)c4c(O)c(c(/C=N/N(c5ccccc5)c5ccccc5)c(O)c4c3C2=O)NC(=O)C(C)=C/C=C/C(C)C(O)C(C)C(O)C(C)C(OC(C)=O)C1C (stereo not drawn) ?
Solution: inactive

Problem: Any idea what this test logged for COc1ccc(C2CC(c3ccccc3)=NN2C(=O)c2cc(OC)c(OC)c(OC)c2)cc1O (stereo not drawn) ?
Solution: inactive

Problem: Any idea what this test logged for C=C1C(=O)O[C@H]2[C@H]1CC/C(COC(=O)/C=C\C(=O)NCc1ccc(Cn3c(=O)sn(CCCCl)c3=O)cc1)=C\CC[C@@]1(C)O[C@@H]21 ?
Solution: inactive

Problem: Any idea what this test logged for Cc1nc2ccccc2c(/C=C/c2ccc(F)cc2)c1C(=O)/C=C/c1ccccc1 ?
Solution: active

Problem: Any idea what this test logged for O=C1CCCC1[n+]1ccccc1 (stereo not drawn) ?
Solution: inactive

Problem: Any idea what this test logged for Cc1ccc2nc(-c3ccc(C(=O)N/N=C/c4ccc([N+](=O)[O-])cc4)cc3)[nH]c2c1 ?
Solution: inactive

Problem: Any idea what this test logged for c1ccc(-c2nc3ccccc3[nH]2)c(OCCCCCOc2ccccc2-c2nc3ccccc3[nH]2)c1 ?
Solution: inactive

Problem: Any idea what this test logged for C[N+]1=C(/C=C/c2ccccc2Cl)C(C)(C)c2ccccc21 ?
Solution: inactive

Problem: Any idea what this test logged for NCCCNc1nc2ccccc2c2c(=O)c3cc(Cl)ccc3sc12 ?
Solution: active

Problem: Any idea what this test logged for COC(=O)c1c2c(c[n+]([O-])c1C)C(=O)C=C(NCc1ccccc1)C2=O ?
Solution: active

----------
- Test system: CCRF-CEM leukemia
- assay.procedure: NCI-60 one-dose screen, 48 h (100 = growth as untreated, 0 = no growth, -100 = all killed)
- recorded.conditions: 10 µM unless noted
- Description: Growth inhibition of the CCRF-CEM human tumor cell line is measured as a screen for anti-cancer activity. Cells are grown in 96 well plates and exposed to the test compound for 48 hours. Compounds are tested at a single concentration, which is 10^-5 M for most compounds. The reported endpoint is percent growth (GI% or GIPRCNT), where numbers from 0 - 100% represent growth inhibition, and numbers from -100% - 0 represent cell death. For example, a value of 40 represents 60% growth inhibition. […]
Compounds without any hit were thinned out: in the full panel of roughly 83,000, 20% have a hit.
reported.endpoint: growth (%)
Kindly provide the numeric value in % only, without the unit symbol.

These recorded examples may help you get a feel for the data.
CS(=O)(=O)Nc1cc(-c2ccc3ncnc(Nc4ccc5c(cnn5Cc5ccncc5)c4)c3c2)cnc1Cl | 33.1
O=C(O)c1cn(C2CC2)c2cc(N3CCN(C(=O)N/N=C/c4cccc5ccccc45)CC3)c(F)cc2c1=O | 112

Shifting focus to the compound that follows.
Noted for COc1nc(/C=C\Nc2ccc3c(c2)OCCOCCOCCOCCO3)nc(OC)n1 : its growth reads 118

----------
- System: NCI-H226 lung
- assay.procedure: NCI-60 one-dose screen, 48 h (100 = growth as untreated, 0 = no growth, -100 = all killed)
- recorded.conditions: 10 µM unless noted
This is part of a sample that, as a whole, favours compounds with a hit. Of some 83,000 tested, about 20% had one in any assay. Active and inactive are the calls of the source. How the source made its calls: active means growth percent below 10; inactive means the rest.
reported.endpoint: growth

These recorded examples may help you get a feel for the data.
CN(C)Cc1cc(C(C)(C)C)cc(Br)c1O | 101% (inactive)
CC(=O)c1c(Nc2cccc(F)c2)[nH]c2c(Cl)cc(Cl)c(Cl)c2c1=O | -4.3% (active)
COc1cc(C[C@H]2COc3cc(O)cc(O)c3C2=O)ccc1O | 101% (inactive)

Noted for ClCCn1cnc2c(SCc3ccccc3)ncnc21 : its growth reads 65.4% (inactive)

Noted for CCN1C(=O)N(c2ccccc2)C2NC(=S)N(/N=C/C=C/c3ccccc3OC)C21 (stereo unspecified) : its growth reads 49.9% (inactive)

Noted for Cc1ccc2c(c1)=C/C(=C\c1cc(-c3ccccc3)[nH]c1O)C(=O)N=2 : its growth reads 69.5% (inactive)

Noted for Cn1cc(-c2nc3c(F)cc4[nH]ncc4c3c3c2CCCC3)c(C(F)(F)F)n1 : its growth reads 67.3% (inactive)

Noted for CC(=O)O[C@H]1CC[C@]2(C)[C@H]3CC=C4[C@@H]5CC(C)(C)CC[C@]5(C(=O)N5CCN(CCC#N)CC5)CC[C@@]4(C)[C@]3(C)CC[C@H]2C1(C)C : its growth reads 48.9% (inactive)

Noted for Cc1cn(C)cn1 : its growth reads 108% (inactive)

Noted for N#CC1=C(N)Oc2c(sc3c(F)cccc23)C1c1ccc([N+](=O)[O-])cc1 (stereo unspecified) : its growth reads 3.23% (active)

Noted for CCOC(=O)CNC1=C(Cl)C(=O)N(Cc2ccc(Cl)cc2)C1=O : its growth reads 99.7% (inactive)

Noted for COC(=O)[C@]1(C)CCC[C@]2(C)[C@H]3C[C@@H]4[C@H]5[C@@H]6CC/C(=N\OCC/C(N)=N/O)[C@H]5[C@@]3(CC[C@H]21)CC4(C(C)C)O6 : its growth reads 83.7% (inactive)

Noted for O=CCCCOCc1ccccc1 : its growth reads 96.5% (inactive)

----------
- Test system: HCT-116 colon
- assay.procedure: NCI-60 one-dose screen, 48 h (100 = growth as untreated, 0 = no growth, -100 = all killed)
- recorded.conditions: 10 µM unless noted
This is part of a sample that, as a whole, favours compounds with a hit. Of some 83,000 tested, about 20% had one in any assay.
// NB: equality with 40% counts as not fulfilled; only growth strictly below is fulfilled

Illustrative cases are given below, each with its answer.
CCCCCc1ccc(S(=O)(=O)Nc2cc(-c3csc(NC(C)=O)n3)ccc2N2CCN(C)CC2)cc1 | fulfilled
CN1c2ccccc2S(=O)(=O)n2c(SCC(=O)Nc3nc4ccc(F)cc4s3)nnc21 | not fulfilled
COc1ccc(Oc2ccc(/C=C/C(=O)c3cc4ccccc4oc3=O)cc2)cc1 | not fulfilled
CC(C)(C)c1ccc(C(=O)N/N=C/c2ccc(O)cc2O)cc1 | fulfilled
CSc1ccc2c3c(n(C[C@H](O)CO)c(=O)c2c1)-c1ccccc1C3=O | fulfilled
CC/C(=C(/c1ccc(O)cc1)c1ccc(OCCN2CCCCC2)cc1)c1ccc(OC)cc1 | fulfilled
Cc1cc2oc(/C=C/c3ccccc3)cc(=O)c2c(C)c1Cl | not fulfilled
CCOC(=O)C1=C(CCl)N(C)C(=O)NC1c1ccc2c(c1)OCO2 (stereo not drawn) | fulfilled

Problem: Quick check: growth of Cc1cc(O)c(=O)cc2c1C[C@H]1CC(C)(C)/C=C/C[C@]3(C)Oc4cc(=O)c(O)cc(C)c4C[C@H]3C[C@H](O)[C@@]1(C)O2 under 40%?
Solution: fulfilled

Problem: Quick check: growth of CNCCCNc1nc2ccccc2c2c(=O)c3cc(Cl)ccc3sc12 under 40%?
Solution: fulfilled

Problem: Quick check: growth of C[N+]1=C(/C=C/c2ccccc2Cl)C(C)(C)c2ccccc21 under 40%?
Solution: not fulfilled

From: PubChem BioAssay (NCI)
